Origin of the recorded values: paper PMC7942396

Tested on: SARS-CoV-2 (USA_WA1/2020)
Test: microbe, parasite or virus in culture
Assay type: cell-based
Conditions: Severe acute respiratory syndrome coronavirus 2, Vero C1008; SARS-CoV-2 CPE assay, Vero E6 cells; read-out: CPE % Efficacy
Counter-ions that a name gives are not always drawn.
assay readout: Emax (%)
Please state the figure in %; there is no need to write the unit.

Reference set (4 entries):
CCCc1cc(C)[nH]c(=O)c1CNC(=O)c1cc(-c2ccnc(N3CCN(C)CC3)c2)cc2c1cnn2C(C)C    51.7
CCOC(=O)C1=C(COCCN)NC(C)=C(C(=O)OC)C1c1ccccc1Cl (stereo not drawn)    99.8
CN(C)CC/C=C1\c2ccccc2CSc2ccccc21 [Dosulepin hydrochloride]    30.8
CN1CC[C@@H](c2c(O)cc(O)c3c(=O)cc(-c4ccc(C(F)(F)F)cc4Cl)oc23)[C@@H]1CO    39.2

Quick check: Emax on SARS-CoV-2 (USA_WA1/2020), item COc1cc(O)c2c(c1)[C@H]1O[C@@H]1C[C@H](O)[C@H](O)C(=O)/C=C\C[C@H](C)OC2=O ?
81.2

Quick check: Emax on SARS-CoV-2 (USA_WA1/2020), item C=C1C(=O)[C@]23[C@H](O)[C@H]1CC[C@H]2[C@@]12CO[C@]3(O)[C@@H](O)[C@@H]1C(C)(C)CC[C@@H]2O ?
130

Quick check: Emax on SARS-CoV-2 (USA_WA1/2020), item CN(C)CCCN1c2ccccc2CCc2ccccc21 ?
57.6

Quick check: Emax on SARS-CoV-2 (USA_WA1/2020), item CN(C)CCCN1c2ccccc2Sc2ccc(Cl)cc21 ?
102

Quick check: Emax on SARS-CoV-2 (USA_WA1/2020), item CSc1ccc(C(=O)/C=C/c2cc(C)c(OC(C)(C)C(=O)O)c(C)c2)cc1 ?
55.7

###

Test: in vitro
Conditions: African green monkey
Structures can show the parent of a compound that is named as a salt.
// reported cytotoxicity at 72 h for each item listed

Reference set (2 entries):
CC(C(O)c1ccccc1)N(C)CCOC(c1ccccc1)c1ccccc1 (stereo not drawn) [Difeterol, reference compound]    < 30%
CCCN1CCN(c2ccc(C(=O)NC3(C(=O)NCC#N)CCCCC3)cc2)CC1 [Balicatib, reference compound]    < 30%

Value lookup for cytotoxicity at 72 h; key = COc1ccc2c(c1)N(C[C@H](C)CN(C)C)c1ccccc1S2 [Methotrimeprazine maleate, reference compound]
< 30%

###

Test system: SARS-CoV-2 (USA_WA1/2020)
Assay: microbe, parasite or virus in culture
Format: cell-based
Conditions: Severe acute respiratory syndrome coronavirus 2, Vero C1008, SARS-CoV-2 CPE assay, Vero E6 cells; confirmed anti-SARS-CoV-2 compounds; read-out: CPE EC50
// reported pEC50 for each item listed
Answer as the number alone; pEC50 is minus log10 of concentration in mol/L.

Reference set (4 entries):
COC(=O)[C@H]1[C@H]2C[C@@H]3c4[nH]c5cc(OC)ccc5c4CCN3C[C@H]2C[C@@H](OC(=O)c2cc(OC)c(OC)c(OC)c2)[C@@H]1OC    4.95
CC(=O)O[C@@H]1C[C@H](O)[C@@]23CO[C@@H](O)[C@]1(C)[C@@H]2C[C@@H](O)[C@]1(C)[C@@H]3C(=O)[C@H](OC(C)=O)[C@@]2(C)[C@H](c3ccoc3)C[C@H]3O[C@]321    5.92
CC(CN1c2ccccc2Sc2ccc(S(=O)(=O)N(C)C)cc21)N(C)C (stereo not drawn)    4.95
S=C(NCc1ccc2c(c1)OCO2)N1CCN(c2ncnc3c2oc2ccccc23)CC1    5.45

Value lookup for pEC50; key = O=C(CCCN1CCC2(CC1)C(=O)NCN2c1ccccc1)c1ccc(F)cc1
5.35

Value lookup for pEC50; key = O=c1[nH]c2ccccc2n1CCCN1CCN(C(c2ccccc2)c2ccccc2)CC1 [Oxatomide]
5.00

Value lookup for pEC50; key = Nc1nc(Nc2ccc3c(c2)CC[C@@H](N2CCCC2)CC3)nn1-c1cc2c(nn1)-c1ccccc1CCC2
5.45

Value lookup for pEC50; key = NC(=O)c1cnc(N[C@@H]2CCCC[C@@H]2N)nc1Nc1cccc(-n2nccn2)c1
4.95

Value lookup for pEC50; key = Cc1cn(CCN2CCN(c3ccccc3-c3cc(C#N)cc(C(=O)NCCCN4CCCC4)c3)CC2)c2ccccc12
5.50

Value lookup for pEC50; key = COc1ccc2cc1Oc1ccc(cc1)C[C@H]1c3c(cc4c(c3Oc3cc5c(cc3OC)CCN(C)[C@@H]5C2)OCO4)CCN1C
5.85

Value lookup for pEC50; key = CN1CCN(CCCN2c3ccccc3Sc3ccc(S(=O)(=O)N(C)C)cc32)CC1 [Thioproperazine dimethanesulfonate]
5.05

Value lookup for pEC50; key = CN1CCN(CC/C=C2/c3ccccc3Sc3ccc(S(=O)(=O)N(C)C)cc32)CC1
5.40
